test system: P388; experiment: Cytotoxicity against vincristine-resistant mouse P388 cells in presence of 0.004 ug/mL vincristine; assay type: functional, cell-based
Threshold check on IC50: strictly below 9 µg/mL is criterion met; on or above 9 µg/mL is criterion not met.

# input In plain terms, does CCO[C@H]1OC(=O)C2=C1[C@@]1(C)CCCC(C)(C)[C@@H]1C[C@H]2O [DENDOCARBIN J] come in under 9 µg/mL for IC50?
# output criterion met

# input In plain terms, does `CC1(C)CCC[C@]2(C)C3=C(CC[C@@H]12)C(=O)O[C@@H]3O` come in under 9 µg/mL for IC50?
# output criterion met

# input In plain terms, does CC1(C)CCC[C@]2(C)[C@H]3[C@H](O)OC(=O)[C@@]3(O)CC[C@@H]12 [DENDOCARBIN D] come in under 9 µg/mL for IC50?
# output criterion not met

# input In plain terms, does CC1(C)CCC[C@]2(C)[C@H]3C(=O)OC(=O)C3=CC[C@@H]12 [DENDOCARBIN H] come in under 9 µg/mL for IC50?
# output criterion met

# input In plain terms, does CC1(C)CCC[C@]2(C)[C@H]3C(=O)OC(=O)C3=C[C@H](O)[C@@H]12 [DENDOCARBIN G] come in under 9 µg/mL for IC50?
# output criterion not met

# input In plain terms, does CCOC1OC(=O)C2=C1[C@@H](O)C[C@H]1C(C)(C)CCC[C@]21C (some centres undefined) [DENDOCARBIN I] come in under 9 µg/mL for IC50?
# output criterion not met

# input In plain terms, does CC1(C)[C@@H](O)CC[C@]2(C)[C@H]3C(=O)OC(=O)C3=CC[C@@H]12 [DENDOCARBIN E] come in under 9 µg/mL for IC50?
# output criterion not met
